Assay: The dissociation constant was measured as binding affinity to P-Glycoprotein C-terminal cytosolic domain using the grafit program.
parameterMeasured: Kd (µM)

[
  {
    "molecule": "O=C(/C=C/c1ccc(Br)cc1)c1c(O)cc(O)cc1O [4-BROMO-2',4',6'-TRIHYDROXYCHALCONE]",
    "Kd [µM]": 0.57
  },
  {
    "molecule": "O=C(/C=C/c1ccc(F)cc1)c1c(O)cc(O)cc1O [4-FLUORO-2',4',6'-TRIHYDROXYCHALCONE]",
    "Kd [µM]": 3.6
  },
  {
    "molecule": "O=C(/C=C/c1ccc(O)cc1)c1c(O)cc(O)cc1O [4,2',4',6'-TETRAHYDROXYCHALCONE]",
    "Kd [µM]": 4.8
  }
]

A. O=C(/C=C/c1ccc(I)cc1)c1c(O)cc(O)cc1O
B. O=C(/C=C/c1ccc(Cl)cc1)c1c(O)cc(O)cc1O [4-CHLORO-2',4',6'-TRIHYDROXYCHALCONE]
C. COc1ccc(/C=C/C(=O)c2c(O)cc(O)cc2O)cc1 [4-METHOXYL-2',4',6'-TRIHYDROXYCHALCONE]
stdin: Form: Sort by [Kd] Order [ ascending ] Provide the ranking by listing each label in its place in the requested order.
stdout: A, B, C

----------
Assay: The maximal fluorescence quenching was determined using the Grafit program.
parameterMeasured: maximal fluorescence quenching (%)

[
  {
    "compound": "O=C(/C=C/c1ccccc1)c1c(O)cc(O)cc1O [2',4',6-TRIHYDROXYCHALCONE]",
    "maximal fluorescence quenching (%)": 87.8
  },
  {
    "compound": "COc1ccc(/C=C/C(=O)c2c(O)cc(O)cc2O)cc1 [4-METHOXYL-2',4',6'-TRIHYDROXYCHALCONE]",
    "maximal fluorescence quenching (%)": 85.5
  },
  {
    "compound": "O=C(/C=C/c1ccc(I)cc1)c1c(O)cc(O)cc1O",
    "maximal fluorescence quenching (%)": 86.6
  }
]

----------
Assay: The maximal fluorescence quenching was determined using the Grafit program.
parameterMeasured: maximal fluorescence quenching (%)

[
  {
    "molecule": "O=C(/C=C/c1ccc(Br)cc1)c1c(O)cc(O)cc1O [4-BROMO-2',4',6'-TRIHYDROXYCHALCONE]",
    "number": 88.7
  },
  {
    "molecule": "O=C(/C=C/c1ccc(F)cc1)c1c(O)cc(O)cc1O [4-FLUORO-2',4',6'-TRIHYDROXYCHALCONE]",
    "number": 88.1
  },
  {
    "molecule": "O=C(/C=C/c1ccc(Cl)cc1)c1c(O)cc(O)cc1O [4-CHLORO-2',4',6'-TRIHYDROXYCHALCONE]",
    "number": 80.1
  },
  {
    "molecule": "O=C(/C=C/c1ccc(O)cc1)c1c(O)cc(O)cc1O [4,2',4',6'-TETRAHYDROXYCHALCONE]",
    "number": 86.8
  }
]

These measurements were taken from ChEMBL document CHEMBL1131145.
